Tested on: follistatin
measurement_description: Follistatin mRNA expression in HepG2 cells
Assay type: cell-based, human
stated_conditions: Experiment 3, basal (no insulin), HepG2 cells, 48 hours post-transfection
In the oligonucleotide strings, read from the 5' end, every base follows the letter of its sugar. An asterisk marks phosphorothioate; unmarked linkages are phosphodiester. Other units and linkages are bracketed, terminal groups are in braces. A string of capitals states the bases alone. e = 2'-O-(2-methoxyethyl) (MOE); [5mC] = 5-methylcytosine; d = 2'-deoxy (DNA)
measure_name: Follistatin (% UTC)
Answer in % UTC, number only, no unit symbol.

Example cases with answers are listed next.
substance	test_target	scale_unit	assay_value
328691 (e[5mC]*e[5mC]*e[5mC]*e[5mC]*eA*dT*d[5mC]*dT*dT*dA*dG*d[5mC]*dA*dT*d[5mC]*eT*eA*eA*eG*eG) [compound 328691]	follistatin	% UTC	93
328384 (eT*e[5mC]*eA*e[5mC]*eG*dT*dG*dG*dA*dG*dA*dG*dG*dA*dG*eT*eT*eA*eA*eA; antisense) [compound 328384]	follistatin	% UTC	110

Now look at this one.
Find the recorded Follistatin (% UTC) belonging to 328761 (antisense eG*e[5mC]*eA*eG*eG*d[5mC]*dT*dA*dA*dA*dA*dG*dA*dA*dA*eT*eA*eA*eG*e[5mC]) [compound 328761] and report it.
91

----------
System: IL-6 mRNA
measurement_description: IL-6 mRNA in LPS-activated primary murine macrophages
Assay type: cell-based, mouse
stated_conditions: 300 nM, +IFN, average of 3 treatments
Experimental: To investigate the role of miRNAs in the immune response, oligomeric compounds of the present invention targeting miRNAs were tested for their effects upon lipopolysaccharide (LPS)-activated primary murine macrophages. Macrophages participate in the immune response, for example, in the recognition and phagocytosis of microorganisms, including bacteria. […]
In the oligonucleotide strings, read from the 5' end, every base follows the letter of its sugar. An asterisk marks phosphorothioate; unmarked linkages are phosphodiester. Other units and linkages are bracketed, terminal groups are in braces. A string of capitals states the bases alone. e = 2'-O-(2-methoxyethyl) (MOE); [5mC] = 5-methylcytosine; d = 2'-deoxy (DNA)
measure_name: IL-6 mRNA expression, % UTC (% UTC)
Only the number, expressed in % UTC, is required.

substance	scale_unit	assay_value
229927 (antisense e[5mC]*e[5mC]*eA*e[5mC]*eA*dT*dT*dG*dA*dG*dT*dT*dT*d[5mC]*dT*eT*eT*eA*eA*eG) [compound 229927]	% UTC	40
129690 (antisense TTAGAATACGTCGCGTTATG; sugars from the 5' end e5 d10 e5, all phosphorothioate, methylation of C not given here) [compound 129690]	% UTC	94

The record that follows has no IL-6 mRNA expression, % UTC shown yet.
Param item = 327921 (antisense e[5mC]*eT*eT*e[5mC]*e[5mC]*eA*eG*eT*e[5mC]*eG*eG*eG*eG*eA*eT*eG*eT*eT*eT*eA*e[5mC]*eA) [compound 327921] ; retrieve measured IL-6 mRNA expression, % UTC.
287

----------
Test system: HSL
measurement_description: HSL mRNA expression in adipocytes (real-time PCR)
Assay type: cell-based, human
stated_conditions: adipocytes, 250 nM oligomeric compound, day nine post-transfection, relative to control (1.0); Table 16
In the oligonucleotide strings, read from the 5' end, every base follows the letter of its sugar. An asterisk marks phosphorothioate; unmarked linkages are phosphodiester. Other units and linkages are bracketed, terminal groups are in braces. A string of capitals states the bases alone. e = 2'-O-(2-methoxyethyl) (MOE); [5mC] = 5-methylcytosine
measure_name: HSL (mRNA expression)
// return a plain number; no unit text

Check out these entries, answers already filled in.
substance	test_target	HSL (mRNA expression)
327893 (antisense eA*eA*e[5mC]*e[5mC]*eA*e[5mC]*eA*e[5mC]*eA*eA*e[5mC]*e[5mC]*eT*eA*e[5mC]*eT*eA*e[5mC]*e[5mC]*eT*e[5mC]*eA) [compound 327893]	HSL	0.85
327930 (antisense eA*e[5mC]*eT*eA*eT*eA*e[5mC]*eA*eA*e[5mC]*e[5mC]*eT*e[5mC]*e[5mC]*eT*eA*e[5mC]*e[5mC]*eT*e[5mC]*eA) [compound 327930]	HSL	0.89

Okay, now this substance:
Can you look up HSL (mRNA expression) on HSL for 327934 (antisense eG*eG*eT*eA*e[5mC]*eA*eA*eT*e[5mC]*eA*eA*e[5mC]*eG*eG*eT*e[5mC]*eG*eA*eT*eG*eG*eT) [compound 327934] ?
0.64

Hey, just so you know, these numbers are from patent US8178506B2.
